Origin of the recorded values: patent US20200399238A1

Recorded IC50 by entry
# Test system: Trypanosoma cruzi Tulahuen cells expressing beta-galactosidase
# Assay name: T. cruzi intracellular assay (beta-galactosidase, L6 host cells)
# Condition label: Trypanosoma cruzi, TULAHUEN, read-out: IC50 TC-I, Table 3A; weighted means of two or more independent trials
Output spec: scalar in µM, unitless text.

Example cases with answers are listed next.
| Molecule | Target entity | Units of measure | IC50 |
| --- | --- | --- | --- |
| O=C1/C(=C/c2ccccc2I)Oc2ccccc21 [Aurone 9003] | Trypanosoma cruzi Tulahuen cells expressing beta-galactosidase | µM | 15.4 |
| O=C1/C(=C/c2cccc(Br)c2)Oc2ccccc21 [Aurone 9030] | Trypanosoma cruzi Tulahuen cells expressing beta-galactosidase | µM | 7.35 |
| Cc1ccccc1/C=C1\Oc2ccccc2C1=O [Sample 9057] | Trypanosoma cruzi Tulahuen cells expressing beta-galactosidase | µM | 26.3 |
| N#Cc1ccc(/C=C2\Oc3ccccc3C2=O)cc1 [Sample 2014] | Trypanosoma cruzi Tulahuen cells expressing beta-galactosidase | µM | 23.5 |

Query: IC50; subject: CC(C)c1ccc(/C=C2\Oc3ccccc3C2=O)cc1 [Sample 8002]
16.6

Query: IC50; subject: CCc1ccc(/C=C2\Oc3ccccc3C2=O)cc1 [Sample 8001]
11.4

====

# Test system: Trypanosoma cruzi Tulahuen cells expressing beta-galactosidase
# Assay name: T. cruzi intracellular assay (beta-galactosidase, L6 host cells)
# Condition label: Trypanosoma cruzi, TULAHUEN, read-out: IC50 TC-I, Table 3A; weighted means of two or more independent trials
Readout kind: IC50 (µM)
Output spec: scalar in µM, unitless text.

Query: IC50; subject: `N#Cc1ccccc1/C=C1\Oc2ccccc2C1=O`
46.6

Query: IC50; subject: `O=C1/C(=C/c2ccccc2C(F)(F)F)Oc2ccccc21`
18.5

Query: IC50; subject: `CC(C)(C)c1ccc(/C=C2\Oc3ccccc3C2=O)cc1`
12.5

Query: IC50; subject: `O=C1/C(=C/c2cccc(O)c2)Oc2ccccc21`
16.5

Query: IC50; subject: `O=C1/C(=C/c2ccc(I)cc2)Oc2ccccc21`
11.1

Query: IC50; subject: `O=C1/C(=C/c2ccc(F)cc2)Oc2ccccc21`
15.8

Query: IC50; subject: `COc1cc(Br)c(/C=C2\Oc3ccccc3C2=O)cc1OC`
36

Query: IC50; subject: `O=C1/C(=C/c2ccccc2O)Oc2ccccc21`
18.4

====

# System: Trypanosoma cruzi Tulahuen cells expressing beta-galactosidase
# Assay name: T. cruzi intracellular assay (beta-galactosidase, L6 host cells)
# Condition label: Table 2; L6 IC50 / T. cruzi IC50 (intracellular assay)
Recorded Selectivity L6/Tc by entry

Example cases with answers are listed next.
| Chemical smiles | Target entity | Readout kind | Recorded result |
| --- | --- | --- | --- |
| COc1ccc(/C=C2\Oc3cc(O)ccc3C2=O)cc1 | Trypanosoma cruzi Tulahuen cells expressing beta-galactosidase | Selectivity L6/Tc | >2.85 |
| COc1ccc(/C=C2\Oc3ccccc3C2=O)cc1 | Trypanosoma cruzi Tulahuen cells expressing beta-galactosidase | Selectivity L6/Tc | >9.28 |
| O=C1/C(=C/c2ccc(/C=C3\Oc4ccccc4C3=O)cc2)Oc2ccccc21 | Trypanosoma cruzi Tulahuen cells expressing beta-galactosidase | Selectivity L6/Tc | >10.22 |
| O=C1/C(=C/c2ccccc2Cl)Oc2ccccc21 | Trypanosoma cruzi Tulahuen cells expressing beta-galactosidase | Selectivity L6/Tc | 18.72 |
| O=C1/C(=C/c2ccc(Cl)cc2)Oc2ccccc21 | Trypanosoma cruzi Tulahuen cells expressing beta-galactosidase | Selectivity L6/Tc | >18.08 |

Query: Selectivity L6/Tc; subject: `O=C1/C(=C/c2ccoc2)Oc2ccccc21`
>13.39

====

# Tested on: Leishmania amazonensis promastigotes expressing beta-lactamase
# Assay name: microbe, parasite or virus in culture
# Format: cell-based
# Condition label: Table 2; L6 IC50 / L. amazonensis IC50
Recorded Selectivity L6/La by entry

Query: Selectivity L6/La; subject: `O=C1/C(=C/[c-]2cccc2)Oc2ccccc21.[Fe+2].c1cc[cH-]c1`
>100

Query: Selectivity L6/La; subject: `O=C1/C(=C/c2cccc(Br)c2)Oc2ccccc21`
>100

Query: Selectivity L6/La; subject: `Cc1[nH]cnc1/C=C1\Oc2ccccc2C1=O`
80.99

Query: Selectivity L6/La; subject: `O=C1/C(=C/c2cccc(I)c2)Oc2ccccc21`
>38.31

Query: Selectivity L6/La; subject: `O=C1/C(=C/c2ccsc2)Oc2ccccc21`
>4.13

Query: Selectivity L6/La; subject: `O=C1/C(=C/c2ccccc2F)Oc2ccccc21`
16.83

Query: Selectivity L6/La; subject: `O=C1/C(=C/c2ccc(I)cc2)Oc2ccccc21`
>32.15

Query: Selectivity L6/La; subject: `Cc1ccc2c(c1)C(=O)/C(=C/c1ccccc1C(F)(F)F)O2`
7.52

Query: Selectivity L6/La; subject: `Cc1ccc2c(c1)C(=O)/C(=C/c1ccc(O)cc1)O2`
>27.93

====

# Target entity: Leishmania amazonensis promastigotes expressing beta-lactamase
# Assay name: microbe, parasite or virus in culture
# Format: cell-based
# Condition label: Table 2; mean of 2(+) independent trials; read-out: IC50 L. amaz.
pIC50: −log10 of the molar value.
Readout kind: pIC50

Query: pIC50; subject: `O=C1/C(=C/[c-]2cccc2)Oc2ccccc21.[Fe+2].c1cc[cH-]c1`
> 6.00

====

# Tested on: Leishmania amazonensis promastigotes expressing beta-lactamase
# Assay name: microbe, parasite or virus in culture
# Type: cell-based
# Condition label: Leishmania amazonensis, read-out: IC50 L. amaz.
Recorded pIC50 by entry
// returns pIC50 (minus log10 of molar concentration), number only

Example cases with answers are listed next.
| Molecule | Readout kind | Recorded result |
| --- | --- | --- |
| Cc1ccc2c(c1)C(=O)/C(=C/c1ccc(Br)cc1)O2 [Aurone 4002] | pIC50 | 4.70 |
| O=C1/C(=C/c2cc3ccccc3o2)Oc2ccccc21 [Aurone 3002] | pIC50 | 5.19 |
| N#Cc1ccc(/C=C2\Oc3ccccc3C2=O)cc1 [Aurone 2014] | pIC50 | 4.97 |
| COc1cccc(/C=C2\Oc3ccccc3C2=O)c1O [Aurone 9055] | pIC50 | 4.73 |
| COc1ccc(/C=C2\Oc3ccc(C)cc3C2=O)c(OC)c1OC [Aurone 4004] | pIC50 | 5.39 |

Checklist item: pIC50 tested on Leishmania amazonensis promastigotes expressing beta-lactamase, entry CC(=O)Nc1ccc(/C=C2\Oc3ccccc3C2=O)cc1 [Aurone 3006] , value?
4.90

====

# System: Leishmania amazonensis promastigotes expressing beta-lactamase
# Assay name: microbe, parasite or virus in culture
# Format: cell-based
# Condition label: Leishmania amazonensis, read-out: IC50 L. amaz. (footnote c: value obtained from one trial)
# Description: Leishmania amazonensis promastigotes expressing beta-lactamase (Buckner et al., Am. J. Trop. Med. Hyg. 72 (2005) 600-605. doi:72/5/600 [pii]) were cultured in RPMI supplemented with 10% fetal calf serum and 1% pen-strep-glut solution (Sigma) at 27° C. Stationary phase promastigotes were adjusted in fresh media, treated with compounds, and incubated at 37° C. […] Luminescence readings were taken with a spectrophotometer and used to calculate inhibition.
Readout kind: pIC50
// returns pIC50 (minus log10 of molar concentration), number only

Query: pIC50; subject: `O=C1/C(=C/C=C/c2ccccc2)Oc2ccccc21`
5.52

Query: pIC50; subject: `COc1cc(OC)c2c(c1)O/C(=C\c1ccc(C#N)cc1)C2=O`
5.68

Query: pIC50; subject: `O=C1/C(=C/c2ccccc2Cl)Oc2ccccc21`
4.76

====

# System: Trypanosoma brucei brucei 427 cells
# Assay name: T. brucei culture and assay (PrestoBlue)
# Type: cell-based
# Condition label: Table 1; mean of 2(+) independent trials; read-out: IC50 T. brucei
Readout kind: IC50

Query: IC50; subject: `O=C1/C(=C/[c-]2cccc2)Oc2ccccc21.[Fe+2].c1cc[cH-]c1`
> 50 µM

====

Recorded IC50 by entry
# Test system: rat skeletal muscle cell line, L6
# Assay name: cells
# Type: cell-based
# Condition label: Rattus norvegicus; Table 1; read-out: IC50 Toxicity (L6)
Output spec: scalar in µM, unitless text.

Example cases with answers are listed next.
| Chemical smiles | Units of measure | IC50 |
| --- | --- | --- |
| O=C1/C(=C/c2cccc([N+](=O)[O-])c2)Oc2ccccc21 | µM | 226 |
| O=C1/C(=C/c2ccccc2C(F)(F)F)Oc2ccccc21 | µM | 130 |
| Cc1ccc(/C=C2\Oc3ccccc3C2=O)o1 | µM | 85.5 |
| COc1ccc(/C=C2\Oc3ccccc3C2=O)cc1O | µM | 70.7 |
| O=C1/C(=C/c2ccc(-c3ccccc3)cc2)Oc2ccccc21 | µM | 298 |

Query: IC50; subject: `COc1ccc(/C=C2\Oc3cc(O)ccc3C2=O)cc1O`
52.6

Query: IC50; subject: `COc1ccc(/C=C2\Oc3ccccc3C2=O)cc1OC`
51.9

Query: IC50; subject: `N#Cc1ccc(/C=C2\Oc3ccccc3C2=O)cc1`
239

Query: IC50; subject: `COc1cc(OC)c2c(c1)O/C(=C\c1ccc(C)cc1)C2=O`
142

Query: IC50; subject: `Cc1ccc2c(c1)C(=O)/C(=C/c1ccccc1C(F)(F)F)O2`
72.9

Query: IC50; subject: `COc1ccc2c(c1)O/C(=C\c1ccc(Br)cc1)C2=O`
181
